- targetUnderTest: T1, RSV postfusion F (postF), subtype B (respiratory syncytial virus subtype B)
- T1 construct: also called Postfusion subtype B
- T1 sequence (P13843 26-109, chain 1 of 2): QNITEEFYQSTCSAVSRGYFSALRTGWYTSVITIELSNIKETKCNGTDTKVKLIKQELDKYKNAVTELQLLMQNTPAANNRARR
- T1 sequence (P13843 147-513, chain 2 of 2): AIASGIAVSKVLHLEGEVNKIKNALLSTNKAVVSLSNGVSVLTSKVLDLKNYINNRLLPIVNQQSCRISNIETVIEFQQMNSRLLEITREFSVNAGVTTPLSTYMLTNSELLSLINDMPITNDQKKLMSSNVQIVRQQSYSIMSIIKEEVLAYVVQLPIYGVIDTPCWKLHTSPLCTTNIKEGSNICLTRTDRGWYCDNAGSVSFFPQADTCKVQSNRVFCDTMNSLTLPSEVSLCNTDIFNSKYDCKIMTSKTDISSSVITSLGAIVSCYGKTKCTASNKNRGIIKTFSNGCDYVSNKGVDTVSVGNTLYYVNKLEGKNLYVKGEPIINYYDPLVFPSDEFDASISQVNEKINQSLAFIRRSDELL
- testName: BLI, IgG
pKd: −log10 of the molar value.

{"binder": "ADI-19497 (antibody, V domains shown, full-length IgG) VH: QVQLVQSGAEVKKPGASVKVSCKASGYTFTSYYMHWVRQAPGQGLEWMGIINPSGGSTSYAQKFQGRVTMTRDTSTSTVYMELSSLRSEDTAVYYCSRGYSYGYDYWGQGTLVTVSS VL: NFMLTQPHSVSESPGKTVTISCTRSSGSIASNYVQWYQQRPGSSPTTVIYEDNQRPSGVPDRFSGSIDSSSNSASLTISGLKTEDEADYYCQSYDSSNWVFGGGTKLTVL", "pKd": 7.87}
